Test system: soybean (Gl)
protocol text: Test Example 6: crop plant selectivity by upland field soil treatment (soybean), phytotoxicity
Format: in vivo
Parameters: scale not given here
test parameters: dose 6.3 g ai/10a, 21st day after application
measured attribute: Phytotoxicity Gl

compound	reported
COc1cc(-c2ccc(C(F)(F)F)n(C)c2=O)c(Cl)cc1Cl	1
CSCOc1cc(-c2ccc(C(F)(F)F)n(C)c2=O)c(F)cc1Cl	2
C#CCN1C(=O)COc2cc(F)c(-c3ccc(C(F)(F)F)n(C)c3=O)cc21	1
CCN1C(=O)COc2cc(F)c(-c3ccc(C(F)(F)F)n(C)c3=O)cc21	1
CSc1cc(-c2ccc(C(F)(F)F)n(C)c2=O)c(F)cc1Cl	1
C=CCN1C(=O)COc2cc(F)c(-c3ccc(C(F)(F)F)n(C)c3=O)cc21	0
Cn1c(C(F)(F)F)ccc(-c2cc(OCC(F)F)c(Cl)cc2F)c1=O	1
CCOC(=O)CON=Cc1cc(-c2ccc(C(F)(F)F)n(C)c2=O)c(F)cc1Cl	2
CCOC(=O)c1cc(-c2ccc(C(F)(F)F)n(C)c2=O)c(F)cc1Cl	1
Cc1cc2c(-c3ccc(C(F)(F)F)n(C)c3=O)c(F)cc(Cl)c2o1	2
C#CCn1c(=O)sc2cc(F)c(-c3ccc(C(F)(F)F)n(C)c3=O)cc21	1
Cn1c(C(F)(F)F)ccc(-c2cc(OCC3CC3)c(Cl)cc2F)c1=O	1
CC(C)Sc1cc(-c2ccc(C(F)(F)F)n(C)c2=O)c(F)cc1Cl	1
Cn1cc(-c2cc(Oc3ccccc3)c(Cl)cc2F)c(=O)cc1C(F)(F)F	0
COCCOCOc1cc(-c2ccc(C(F)(F)F)n(C)c2=O)c(F)cc1Cl	1
Cn1c(C(F)(F)F)ccc(-c2cc(Cl)c(Cl)cc2F)c1=O	1
Cn1c(C(F)(F)F)ccc(-c2cc(OCC(F)(F)F)c(Cl)cc2F)c1=O	0
CCc1cc2c(Cl)cc(F)c(-c3ccc(C(F)(F)F)n(C)c3=O)c2o1	1
C#CCN1C(=O)C(C)Oc2cc(Cl)c(-c3ccc(C(F)(F)F)n(C)c3=O)cc21 (stereo not drawn)	1
CON=C(C)c1cc(-c2ccc(C(F)(F)F)n(C)c2=O)c(F)cc1Cl	1
CC(C)ON=Cc1cc(-c2ccc(C(F)(F)F)n(C)c2=O)c(F)cc1Cl	1
COCSc1cc(-c2ccc(C(F)(F)F)n(C)c2=O)c(F)cc1Cl	1
Cn1c(C(F)(F)F)ccc(-c2c(F)cc(Cl)c3oc(CO)cc23)c1=O	2
CCCOc1cc(-c2ccc(C(F)(F)F)n(C)c2=O)c(F)cc1Cl	1
CCC(C)Oc1cc(-c2ccc(C(F)(F)F)n(C)c2=O)c(F)cc1Cl (stereo not drawn)	1
C#CCN1C(=O)COc2cc(Cl)c(-c3ccc(C(F)(F)F)n(C)c3=O)cc21	1
CCON=Cc1cc(-c2ccc(C(F)(F)F)n(C)c2=O)c(F)cc1Cl	1
CON=Cc1cc(-c2ccc(C(F)(F)F)n(C)c2=O)c(F)cc1Cl	2
Cn1c(C(F)(F)F)ccc(-c2cc(OCCCl)c(Cl)cc2F)c1=O	1
Cc1cc(-c2ccc(C(F)(F)F)n(C)c2=O)c(F)cc1Cl	2
Cn1c(C(F)(F)F)ccc(-c2cc(OCC#N)c(Cl)cc2F)c1=O	2
CCCON=Cc1cc(-c2ccc(C(F)(F)F)n(C)c2=O)c(F)cc1Cl	1
C=C(C)COc1cc(-c2ccc(C(F)(F)F)n(C)c2=O)c(F)cc1Cl	0
C#CCOc1cc(Cl)cc(F)c1-c1ccc(C(F)(F)F)n(C)c1=O	1
C#CCOc1cc(-c2cn(C)c(C(F)(F)F)cc2=O)c(F)cc1Cl	0
C#CC(CC)Oc1cc(-c2ccc(C(F)(F)F)n(C)c2=O)c(F)cc1Cl (racemic)	2
